Test system: CCRIS mutagenicity, Ames/micronucleus/aberration tests
Assay: CCRIS mutagenicity studies
Conditions: Test System: AMES SALMONELLA TYPHIMURIUM; Strain/Indicator: TA100; Metabolic Activation: NONE; Method: PREINCUBATION
Activity calls are given as the source filed them. No rule for the calls is given here.
Classes used: active, inactive

COMPOUND: OC[C@@H](O)[C@@H](O[C@@H]1O[C@H](CO)[C@H](O)[C@H](O)[C@H]1O)[C@H](O)[C@@H](O)CO
CATEGORY LABEL: inactive
//
COMPOUND: C=CCSSCCC
CATEGORY LABEL: inactive
//
COMPOUND: O=[N+]([O-])c1ccc(O)c([N+](=O)[O-])c1
CATEGORY LABEL: inactive
//
COMPOUND: Oc1ccc(Nc2ccc3ccccc3c2)cc1
CATEGORY LABEL: inactive
//
COMPOUND: C=CC(=O)OCC1CO1 (centres undefined)
CATEGORY LABEL: active
//
COMPOUND: C=C(C)C(=O)OCC(C)C
CATEGORY LABEL: inactive
//
COMPOUND: CNC[C@H](O)c1ccc(O)c(O)c1
CATEGORY LABEL: inactive
//
COMPOUND: Oc1c(Cl)ccc(Cl)c1Cl
CATEGORY LABEL: inactive
//
COMPOUND: Cc1ccccc1N
CATEGORY LABEL: inactive
//
COMPOUND: CC(C)(C)c1cc(/C=C/c2cc(C(C)(C)C)c(O)c(C(C)(C)C)c2)cc(C(C)(C)C)c1O
CATEGORY LABEL: inactive
//
COMPOUND: Nc1c(Br)cc(Br)c2c1C(=O)c1ccccc1C2=O
CATEGORY LABEL: inactive
//
COMPOUND: O=c1oc2cc([N+](=O)[O-])ccc2c2ccccc12
CATEGORY LABEL: active
//
COMPOUND: CCN(CC)C(=S)SSC(=S)N(CC)CC
CATEGORY LABEL: inactive
//
COMPOUND: CC(C)C(C)C
CATEGORY LABEL: inactive

====

Test system: CCRIS mutagenicity, Ames/micronucleus/aberration tests
Test: CCRIS mutagenicity studies
Settings: Test System: AMES SALMONELLA TYPHIMURIUM; Strain/Indicator: TA1537; Metabolic Activation: NONE; Method: STANDARD PLATE
Calls of active or inactive are those of the source. How the calls were made is not given here.
RECORDED METRIC: mutagenic call

MOLECULE: N#CCCN
OBSERVED MEASUREMENT: inactive; negative

MOLECULE: CC(C)n1c(/C=C/[C@H](O)C[C@H](O)CC(=O)O)c(-c2ccc(F)cc2)c2ccccc21
OBSERVED MEASUREMENT: inactive; negative

MOLECULE: C=C[Si](C)(C)N[Si](C)(C)C=C
OBSERVED MEASUREMENT: inactive; negative

====

System: CCRIS mutagenicity, Ames/micronucleus/aberration tests
Assay: CCRIS mutagenicity studies
Settings: Test System: AMES SALMONELLA TYPHIMURIUM; Strain/Indicator: TA98; Metabolic Activation: RAT, LIVER, S-9, AROCLOR 1254 (10%); Method: PREINCUBATION
Activity calls are given as the source filed them. How the calls were made is not given here.
Classes used: active, inactive

COMPOUND: N#C/C=C/C#N
CATEGORY LABEL: inactive

COMPOUND: CNCCO
CATEGORY LABEL: inactive

COMPOUND: CNC[C@H](O)c1ccc(O)c(O)c1
CATEGORY LABEL: inactive

COMPOUND: Cc1ccccc1N
CATEGORY LABEL: inactive

COMPOUND: [O]=[Zr]
CATEGORY LABEL: inactive

COMPOUND: CC(C)(C)OOC(=O)c1ccccc1
CATEGORY LABEL: active

COMPOUND: Cc1ccc(C#N)cc1
CATEGORY LABEL: inactive

COMPOUND: O=C1N(CO)C(O)C(O)N1CO (stereo unspecified)
CATEGORY LABEL: inactive

COMPOUND: NCCO
CATEGORY LABEL: inactive

COMPOUND: Oc1ccc(Nc2ccc3ccccc3c2)cc1
CATEGORY LABEL: inactive

COMPOUND: Oc1c(Cl)ccc(Cl)c1Cl
CATEGORY LABEL: inactive
